These measurements were taken from patent US20130029981A1.

Tested on: Pseudomonas aeruginosa PA14
experiment: Static peg assay for prevention of biofilm formation (Calgary device, crystal violet)
Assay type: cell-based
condition.summary: 25° C., 24 hours, Table 15; read-out: (2) IC50 (biofilm inhibition)
assay.endpoint: IC50 (µM)
Please state the figure in µM; there is no need to write the unit.

compound="CCCCCCN1c2nccc[n+]2CC1(O)c1ccc([N+](=O)[O-])cc1.[Br-] (stereo not shown)" assay_endpoint=IC50 unit_annotation=µM reported_value=10.9

Which IC50 value is on record for CCCCCCCCN1c2nccc[n+]2CC1(O)c1ccc(F)cc1 (stereo not shown) ?
7.12

Which IC50 value is on record for OC1(c2ccc(Cl)cc2)C[n+]2cccnc2N1C1CCCCCC1 (stereo not shown) ?
63.8

Which IC50 value is on record for CCCCCCCCCCCCN1c2nccc[n+]2CC1(O)c1ccc(Cl)cc1 (racemic) ?
119

###

Test system: S. Typhimurium ATCC14028
experiment: Static peg assay for prevention of biofilm formation (Calgary device, crystal violet)
Type: cell-based, Salmonella Typhimurium
condition.summary: Salmonella enterica; 25° C., Table 17; read-out: S. Typhimurium IC50 (biofilm formation)
assay.endpoint: IC50 (µM)
Please state the figure in µM; there is no need to write the unit.

Which IC50 value is on record for CCCCCCCCN1c2nccc[n+]2C[C@@]1(O)c1cccc2ccccc12 ?
14.7

###

Measured IC50 accompanies every entry in the list below.
Test system: Pseudomonas aeruginosa PA14
experiment: Static peg assay for prevention of biofilm formation (Calgary device, crystal violet)
Assay type: cell-based
condition.summary: Pseudomonas aeruginosa, PA14, 24 h, read-out: (2) IC50 (biofilm inhibition)
Please state the figure in µM; there is no need to write the unit.

Some solved entries appear below for comparison.
smiles_data=CCCCCCCC[n+]1c(-c2cccc(Br)c2)cn2cccnc21.[O-][Cl+3]([O-])([O-])[O-] assay_endpoint=IC50 reported_value=7
smiles_data=CCCCCCCC[n+]1c(-c2ccc(OC)cc2)cn2cccnc21.[O-][Cl+3]([O-])([O-])[O-] assay_endpoint=IC50 reported_value=8.73
smiles_data=CCCCCCCC[n+]1c(-c2cccc3ccccc23)cn2cccnc21.[O-][Cl+3]([O-])([O-])[O-] assay_endpoint=IC50 reported_value=6.83

Which IC50 value is on record for CCCCCCCC[n+]1c(-c2ccc(Cl)c(Cl)c2)cn2cccnc21.[O-][Cl+3]([O-])([O-])[O-] ?
12.7

###

Measured IC50 accompanies every entry in the list below.
Tested on: S. Typhimurium SL1344
experiment: Growth inhibition of planktonic cells in the peg assay plate (OD600)
Format: cell-based
condition.summary: Salmonella enterica, SL1344, 16° C.
Please state the figure in µM; there is no need to write the unit.

Some solved entries appear below for comparison.
molecule="Fc1ccccc1Sc1ccccc1CNC1=NCCN1 [Specs3-3]" reported_value=265
molecule="Fc1ccc(Sc2ccccc2CNC2=NCCN2)cc1 [Specs3]" reported_value=283
molecule="c1ccc(Sc2ccc3c(c2)OCO3)c(CNC2=NCCN2)c1 [Specs3-1]" reported_value=417

With those in mind, consider the next molecule.
Which IC50 value is on record for c1ccc(Sc2cccc3ccccc23)c(CNC2=NCCN2)c1 [Specs3-4] ?
82.6

###

System: Pseudomonas aeruginosa PA14
experiment: Static peg assay for prevention of biofilm formation (Calgary device, crystal violet)
Type: cell-based
condition.summary: Pseudomonas aeruginosa, PA14, 25° C., Table 17; read-out: P. aeruginosa IC50 (biofilm formation)
assay.endpoint: IC50 (µM)
Please state the figure in µM; there is no need to write the unit.

Which IC50 value is on record for CCCCCCCCN1c2nccc[n+]2C[C@@]1(O)c1cccc2ccccc12 ?
15.1
